The measurements presented in this section are drawn from patent US10035778B2.

# target-or-system: Recombinant human integrin αvβ6 (Homo sapiens (Human), UniProt P06756+P18564)
# Sequence (P06756 31-992): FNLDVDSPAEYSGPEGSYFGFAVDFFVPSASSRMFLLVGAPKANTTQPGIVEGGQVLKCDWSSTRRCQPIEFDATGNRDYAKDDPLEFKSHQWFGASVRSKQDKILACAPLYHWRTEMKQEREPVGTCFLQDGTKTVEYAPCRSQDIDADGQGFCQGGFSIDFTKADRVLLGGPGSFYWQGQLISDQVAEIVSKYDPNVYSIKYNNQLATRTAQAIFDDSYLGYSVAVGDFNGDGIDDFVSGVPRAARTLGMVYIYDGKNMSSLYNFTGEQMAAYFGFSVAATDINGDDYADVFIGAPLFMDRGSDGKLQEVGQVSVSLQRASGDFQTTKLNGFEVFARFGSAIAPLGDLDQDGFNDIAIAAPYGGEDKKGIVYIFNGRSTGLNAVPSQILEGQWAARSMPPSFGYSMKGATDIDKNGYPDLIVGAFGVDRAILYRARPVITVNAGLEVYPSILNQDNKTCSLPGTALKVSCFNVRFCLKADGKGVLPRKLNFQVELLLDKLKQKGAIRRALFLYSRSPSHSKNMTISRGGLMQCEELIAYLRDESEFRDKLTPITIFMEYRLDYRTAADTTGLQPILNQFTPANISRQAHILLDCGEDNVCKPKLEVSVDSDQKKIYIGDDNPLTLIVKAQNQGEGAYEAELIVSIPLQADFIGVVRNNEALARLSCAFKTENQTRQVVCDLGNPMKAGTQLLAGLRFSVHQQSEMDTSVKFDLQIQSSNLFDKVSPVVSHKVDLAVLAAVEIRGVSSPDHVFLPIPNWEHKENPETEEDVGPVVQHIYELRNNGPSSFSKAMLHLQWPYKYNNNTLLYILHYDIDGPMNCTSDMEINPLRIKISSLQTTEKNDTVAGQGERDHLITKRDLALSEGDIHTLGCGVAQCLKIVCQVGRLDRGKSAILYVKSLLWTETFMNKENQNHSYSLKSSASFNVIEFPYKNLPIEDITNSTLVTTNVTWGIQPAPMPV
# Sequence (P18564 22-707): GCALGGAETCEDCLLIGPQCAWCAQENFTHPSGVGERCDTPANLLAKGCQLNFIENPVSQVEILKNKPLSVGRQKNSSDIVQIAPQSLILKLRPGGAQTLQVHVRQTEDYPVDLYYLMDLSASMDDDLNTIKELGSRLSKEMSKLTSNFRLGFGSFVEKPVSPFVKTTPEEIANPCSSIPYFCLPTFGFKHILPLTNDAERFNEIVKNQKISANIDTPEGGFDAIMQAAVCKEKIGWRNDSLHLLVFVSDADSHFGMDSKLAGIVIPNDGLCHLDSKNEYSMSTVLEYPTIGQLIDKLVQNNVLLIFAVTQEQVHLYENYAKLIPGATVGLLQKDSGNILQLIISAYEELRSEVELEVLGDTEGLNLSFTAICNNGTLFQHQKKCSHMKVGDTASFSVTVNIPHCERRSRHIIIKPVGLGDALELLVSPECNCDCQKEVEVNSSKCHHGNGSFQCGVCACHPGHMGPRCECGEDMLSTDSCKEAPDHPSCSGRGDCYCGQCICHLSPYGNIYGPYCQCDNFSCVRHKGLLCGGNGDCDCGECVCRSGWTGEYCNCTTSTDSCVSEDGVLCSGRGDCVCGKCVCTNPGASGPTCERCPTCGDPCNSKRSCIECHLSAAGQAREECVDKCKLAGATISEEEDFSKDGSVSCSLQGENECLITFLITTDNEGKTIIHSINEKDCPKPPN
# procedure-text: Solid Phase Receptor Assay (SPRA) for αvβ6 function
# condition-details: LAP-coated plate

molecule	target-or-system	u	IC50
N=C(N)Nc1cccc(C(=O)NCC(=O)NC(CC(=O)O)c2cc(F)cc(C(F)(F)F)c2)c1 (stereo not shown) [Example C9, reference compound]	Recombinant human integrin αvβ6 (Homo sapiens (Human), UniProt P06756+P18564)	nM	1
O=C(O)C[C@H](NC(=O)CNC(=O)c1cc(O)cc(NC2=NCC(O)CN2)c1)c1cc(Br)cc(Br)c1 (stereo partly shown)	Recombinant human integrin αvβ6 (Homo sapiens (Human), UniProt P06756+P18564)	nM	0.4
O=C(O)C[C@H](NC(=O)CNC(=O)c1cc(O)cc(NC2=NCC(O)CN2)c1)c1cc(Cl)cc(OC(F)(F)F)c1 (stereo partly shown)	Recombinant human integrin αvβ6 (Homo sapiens (Human), UniProt P06756+P18564)	nM	0.5
O=C(O)C[C@H](NC(=O)CNC(=O)c1cc(O)cc(NC2=NCC(O)CN2)c1)c1cc(Cl)cc(C(F)F)c1 (stereo partly shown)	Recombinant human integrin αvβ6 (Homo sapiens (Human), UniProt P06756+P18564)	nM	0.4

====

# target-or-system: Recombinant human integrin α8β1 (Homo sapiens (Human), UniProt P05556+P53708)
# Sequence (P53708 39-1012): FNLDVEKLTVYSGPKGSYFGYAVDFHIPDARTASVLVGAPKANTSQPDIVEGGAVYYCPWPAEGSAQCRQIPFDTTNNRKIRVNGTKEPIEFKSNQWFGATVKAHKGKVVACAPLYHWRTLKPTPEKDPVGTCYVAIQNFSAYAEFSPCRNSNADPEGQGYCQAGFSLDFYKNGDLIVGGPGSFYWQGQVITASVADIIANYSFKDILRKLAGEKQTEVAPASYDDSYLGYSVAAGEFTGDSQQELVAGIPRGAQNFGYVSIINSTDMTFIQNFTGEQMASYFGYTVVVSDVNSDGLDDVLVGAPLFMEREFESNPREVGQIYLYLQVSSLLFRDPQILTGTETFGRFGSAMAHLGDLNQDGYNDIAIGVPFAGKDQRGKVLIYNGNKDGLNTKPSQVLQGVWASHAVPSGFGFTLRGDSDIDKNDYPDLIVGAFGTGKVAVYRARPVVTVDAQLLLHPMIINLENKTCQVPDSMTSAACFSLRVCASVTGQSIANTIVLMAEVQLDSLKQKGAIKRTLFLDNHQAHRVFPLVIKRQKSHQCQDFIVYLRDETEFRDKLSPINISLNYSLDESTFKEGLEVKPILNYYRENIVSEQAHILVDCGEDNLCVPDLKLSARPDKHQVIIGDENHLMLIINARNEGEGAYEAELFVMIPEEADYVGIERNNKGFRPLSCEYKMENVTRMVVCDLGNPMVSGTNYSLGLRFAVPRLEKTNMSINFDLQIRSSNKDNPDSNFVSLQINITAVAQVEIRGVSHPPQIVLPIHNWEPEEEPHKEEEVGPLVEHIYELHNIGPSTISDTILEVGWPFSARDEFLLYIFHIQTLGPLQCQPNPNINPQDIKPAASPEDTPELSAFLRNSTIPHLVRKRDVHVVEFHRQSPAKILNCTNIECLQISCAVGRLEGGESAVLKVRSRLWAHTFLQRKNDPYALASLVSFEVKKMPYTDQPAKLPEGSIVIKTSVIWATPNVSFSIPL
# Sequence (P05556 21-728): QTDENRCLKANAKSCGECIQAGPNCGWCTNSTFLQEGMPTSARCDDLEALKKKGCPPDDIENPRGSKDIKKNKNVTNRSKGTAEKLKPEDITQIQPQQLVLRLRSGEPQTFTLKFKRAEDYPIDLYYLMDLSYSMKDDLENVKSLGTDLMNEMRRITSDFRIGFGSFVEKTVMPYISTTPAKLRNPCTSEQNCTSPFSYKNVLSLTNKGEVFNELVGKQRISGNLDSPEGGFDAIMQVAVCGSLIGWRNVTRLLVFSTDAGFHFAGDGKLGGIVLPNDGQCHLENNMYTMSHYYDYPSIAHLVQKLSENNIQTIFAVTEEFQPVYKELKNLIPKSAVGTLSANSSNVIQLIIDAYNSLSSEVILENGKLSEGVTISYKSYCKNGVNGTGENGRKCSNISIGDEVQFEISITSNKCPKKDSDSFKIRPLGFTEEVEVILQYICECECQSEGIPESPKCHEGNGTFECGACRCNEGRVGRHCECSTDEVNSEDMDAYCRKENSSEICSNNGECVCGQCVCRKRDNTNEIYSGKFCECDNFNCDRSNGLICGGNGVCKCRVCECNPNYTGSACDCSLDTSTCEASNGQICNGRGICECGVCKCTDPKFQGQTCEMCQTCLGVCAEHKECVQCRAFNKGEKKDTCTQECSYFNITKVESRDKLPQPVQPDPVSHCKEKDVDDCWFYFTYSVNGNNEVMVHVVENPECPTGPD
# procedure-text: Solid Phase Receptor Assay (SPRA) for α8β1 function
# condition-details: mouse nephronectin-coated plate
# IC50 values compiled below
measured-attribute: IC50 (nM)

compound	u	meas-value
O=C(O)C[C@H](NC(=O)CNC(=O)c1cc(O)cc(NC2=NCC(O)CN2)c1)c1cc(Cl)cc(OC(F)(F)F)c1 (stereo partly shown)	nM	0.5
O=C(O)C[C@H](NC(=O)CNC(=O)c1cc(O)cc(NC2=NCC(O)CN2)c1)c1cc(Cl)cc(C(F)F)c1 (stereo partly shown)	nM	0.9
Cc1ccc(O)c(C(CC(=O)O)NC(=O)CNC(=O)c2cccc(NC(=N)N)c2)c1 (stereo not shown) [Example C8, reference compound]	nM	594
Cc1cc(Br)cc([C@H](CC(=O)O)NC(=O)CNC(=O)c2cc(O)cc(NC3=NCC(O)CN3)c2)c1 (stereo partly shown)	nM	0.7
O=C(O)CC(NC(=O)CNC(=O)c1cc(O)cc(NC2=NCC(O)CN2)c1)c1cc(Cl)cc(Cl)c1O (stereo not shown) [Example C3, reference compound]	nM	14
O=C(O)C[C@H](NC(=O)CNC(=O)c1cncc(NC2=NCC(O)CN2)c1)c1cc(Br)cc(Br)c1 (stereo partly shown)	nM	0.4
O=C(O)C[C@H](NC(=O)CNC(=O)c1cc(O)cc(NC2=NCC(O)CN2)c1)c1cc(F)cc(Br)c1 (stereo partly shown)	nM	0.6

====

# target-or-system: Recombinant human integrin α8β1 (Homo sapiens (Human), UniProt P05556+P53708)
# procedure-text: Solid Phase Receptor Assay (SPRA) for α8β1 function
# Type: binding
# condition-details: mouse nephronectin-coated plate
# Protocol: 7. Solid Phase Receptor Assay (SPRA) for α8β1 Function Recombinant mouse nephronectin protein (R&D Systems, Inc, 4298-NP) diluted to 1 μg/mL in TBS+ buffer (25 mM Tris pH 7.4, 137 mM NaCl, 2.7 mM KCl, 1 mM CaCl2, 1 mM MgCl2, 1 mM MnCl2) was added to wells (50 μl/well) of a 96-well half-well transparent microtiter plate (Greiner 675061), and incubated overnight at 4° C. […] Plates were read by colorimetric detection at 650 nm wavelength using a Tecan Safire II plate reader. […]
With a cut-off of 1 nM, any IC50 strictly below it is called 1; any IC50 meeting it or above is called 0.

compound	label
O=C(O)C[C@H](NC(=O)CNC(=O)c1cncc(NC2=NCC(O)CN2)c1)c1cc(Cl)cc(Br)c1 (some centres unmarked) [Example 8]	1
O=C(O)C[C@H](NC(=O)CNC(=O)c1cc(O)cc(NC2=NCC(O)CN2)c1)c1cc(Br)cc(Br)c1 (some centres unmarked) [Example 1]	0
N=C(N)Nc1cccc(C(=O)NCC(=O)NC(CC(=O)O)c2cc(F)cc(C(F)(F)F)c2)c1 (centres unmarked) [Example C9, reference compound]	0
O=C(O)C[C@H](NC(=O)CNC(=O)c1cncc(NC2=NCC(O)CN2)c1)c1cc(Br)cc(C(F)(F)F)c1 (some centres unmarked) [Example 9]	1
O=C(O)C[C@H](NC(=O)CNC(=O)c1cc(O)cc(NC2=NCC(O)CN2)c1)c1ccccc1 (some centres unmarked) [Example C2, reference compound]	0
Cc1ccc(O)c(C(CC(=O)O)NC(=O)CNC(=O)c2cc(O)cc(NC3=NCC(O)CN3)c2)c1 (centres unmarked) [Example C6, reference compound]	0
N=C(N)Nc1cccc(C(=O)NCC(=O)NC(CC(=O)O)c2ccccc2)c1 (centres unmarked) [Example C5, reference compound]	0
O=C(O)C[C@H](NC(=O)CNC(=O)c1cc(O)cc(NC2=NCC(O)CN2)c1)c1cc(Cl)cc(Br)c1 (some centres unmarked) [Example 6]	1

====

# procedure-text: Oral (PO) cassette pharmacokinetic study in male Sprague-Dawley rats
# Format: in vivo
# condition-details: plasma; male Sprague-Dawley rat, 2 mg/kg oral gavage cassette in 0.5% methylcellulose; read-out: AUC (0-inf) after a 2 mg/kg PO dose in rat

compound	AUC(0-inf)
O=C(O)C[C@H](NC(=O)CNC(=O)c1cc(O)cc(NC2=NCC(O)CN2)c1)c1ccccc1 (stereo partly shown) [Example C29, reference compound]	< 1 ng·h/mL
O=C(O)C[C@H](NC(=O)CNC(=O)c1cncc(NC2=NCC(O)CN2)c1)c1cc(Br)cc(Br)c1 (stereo partly shown)	6500 ng·h/mL
CC(C)(O)c1cc(Cl)cc([C@H](CC(=O)O)NC(=O)CNC(=O)c2cc(O)cc(NC3=NCC(O)CN3)c2)c1 (stereo partly shown) [Example C16, reference compound]	62 ng·h/mL
O=C(O)C[C@H](NC(=O)CNC(=O)c1cc(O)cc(NC2=NCC(O)CN2)c1)c1cc(Cl)cc(OC(F)(F)F)c1 (stereo partly shown)	6810 ng·h/mL
CC(C)(C)c1cc(Br)cc([C@H](CC(=O)O)NC(=O)CNC(=O)c2cc(O)cc(NC3=NCC(O)CN3)c2)c1O (stereo partly shown) [Example C14, reference compound]	224 ng·h/mL
O=C(O)C[C@H](NC(=O)CNC(=O)c1cc(O)cc(NC2=NCC(O)CN2)c1)c1cc(Br)cc(Br)c1 (stereo partly shown)	25000 ng·h/mL
Cc1cc(Cl)cc([C@H](CC(=O)O)NC(=O)CNC(=O)c2cc(O)cc(NC3=NCC(O)CN3)c2)c1 (stereo partly shown)	9110 ng·h/mL
CC(C)(O)c1cc(Br)cc([C@H](CC(=O)O)NC(=O)CNC(=O)c2cc(O)cc(NC3=NCC(O)CN3)c2)c1 (stereo partly shown) [Example C15, reference compound]	87 ng·h/mL
Cc1cc(Br)cc([C@H](CC(=O)O)NC(=O)CNC(=O)c2cc(O)cc(NC3=NCC(O)CN3)c2)c1 (stereo partly shown)	9140 ng·h/mL
O=C(O)C[C@H](NC(=O)CNC(=O)c1cc(O)cc(NC2=NCC(O)CN2)c1)c1cc(C(F)(F)F)cc(C(F)(F)F)c1 (stereo partly shown)	13000 ng·h/mL
NC(=O)c1cc(Cl)cc([C@H](CC(=O)O)NC(=O)CNC(=O)c2cc(O)cc(NC3=NCC(O)CN3)c2)c1 (stereo partly shown) [Example C30, reference compound]	< 1 ng·h/mL
O=C(O)C[C@H](NC(=O)CNC(=O)c1cc(O)cc(NC2=NCC(O)CN2)c1)c1cc(Cl)cc(Cl)c1 (stereo partly shown)	15600 ng·h/mL
O=C(O)C[C@H](NC(=O)CNC(=O)c1cc(O)cc(NC2=NCC(O)CN2)c1)c1cc(F)cc(Br)c1 (stereo partly shown)	13900 ng·h/mL
O=C(O)C[C@H](NC(=O)CNC(=O)c1cc(O)cc(NC2=NCC(O)CN2)c1)c1cc(Br)cc(OC(F)(F)F)c1 (stereo partly shown)	13100 ng·h/mL
O=C(O)C[C@H](NC(=O)CNC(=O)c1cncc(NC2=NCC(O)CN2)c1)c1cc(Cl)cc(C(F)(F)F)c1 (stereo partly shown)	3890 ng·h/mL
O=C(O)C[C@H](NC(=O)CNC(=O)c1cc(O)cc(NC2=NCC(O)CN2)c1)c1cc(Cl)cc(C(F)F)c1 (stereo partly shown)	4870 ng·h/mL
O=C(O)C[C@H](NC(=O)CNC(=O)c1cc(O)cc(NC2=NCC(O)CN2)c1)c1cc(Cl)cc(C(F)(F)F)c1 (stereo partly shown)	11400 ng·h/mL
O=C(O)C[C@H](NC(=O)CNC(=O)c1cncc(NC2=NCC(O)CN2)c1)c1cc(Br)cc(C(F)(F)F)c1 (stereo partly shown)	4120 ng·h/mL
O=C(O)C[C@H](NC(=O)CNC(=O)c1cc(O)cc(NC2=NCC(O)CN2)c1)c1cc(Cl)cc(Br)c1 (stereo partly shown)	34400 ng·h/mL
O=C(O)C[C@H](NC(=O)CNC(=O)c1cc(O)cc(NC2=NCC(O)CN2)c1)c1cc(Br)cc(C(F)(F)F)c1 (stereo partly shown)	19300 ng·h/mL
O=C(O)C[C@H](NC(=O)CNC(=O)c1cncc(NC2=NCC(O)CN2)c1)c1cc(Cl)cc(Br)c1 (stereo partly shown)	4470 ng·h/mL
CC(C)(C)c1cc(Br)cc([C@H](CC(=O)O)NC(=O)CNC(=O)c2cc(O)cc(NC3=NCC(O)CN3)c2)c1 (stereo partly shown) [Example C12, reference compound]	205 ng·h/mL
